# ASSAY NAME: self-splicing fitness, log relative to wild type (ln ratio); higher = more splicing; Tetrahymena group I intron in knt gene, E. coli kanamycin selection, DiMSum; sequences stand for … in CUCUCU…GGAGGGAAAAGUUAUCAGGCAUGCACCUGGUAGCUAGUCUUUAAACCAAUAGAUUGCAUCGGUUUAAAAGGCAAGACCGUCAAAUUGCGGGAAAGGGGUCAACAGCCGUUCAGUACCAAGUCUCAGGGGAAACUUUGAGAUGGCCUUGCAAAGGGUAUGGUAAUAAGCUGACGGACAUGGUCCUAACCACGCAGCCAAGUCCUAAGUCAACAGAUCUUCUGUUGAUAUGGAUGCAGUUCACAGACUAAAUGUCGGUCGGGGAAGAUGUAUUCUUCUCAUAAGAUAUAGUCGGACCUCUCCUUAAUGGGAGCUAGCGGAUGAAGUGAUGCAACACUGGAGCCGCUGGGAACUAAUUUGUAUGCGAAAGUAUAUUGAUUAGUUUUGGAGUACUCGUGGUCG;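 note: selection with 25 µg/mL kanamycin versus none on LB agar overnight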
# EXPERIMENTAL CONDITIONS: 37 °C
Each entry below carries its recorded self-splicing fitness (ln).
PROPERTY: self-splicing fitness (ln)

1. UCGGAGCAAUAUUACGGCGG -0.955
2. GCAAAGCAAUAUUACGUCGA -0.578
3. CGACAGCAAUAUUACGAAGU -3.18
4. GCUCAGCAAUAUUACGAUUA -0.287
5. AUGUAGCAAUAUUACGUCUU -0.0792
6. CAUCAGCAAUAUUACGGACA -1.16
7. GGGUAGCAAUAUUACGGCUU 0.232
8. UUGCAGCAAUAUUACGCUAA -0.551
9. AGGGAGCAAUAUUACGCUCG -2.12
10. AACCAGCAAUAUUACGCUUA -0.0597
11. ACCAAGCAAUAUUACGUCGG -1.36
12. CGUCAGCAAUAUUACGGCAG -0.287
13. UCGGAGCAAUAUUACGUGUU -2.25
14. CUGCAGCAAUAUUACGUGGU -3.71

###

# ASSAY NAME: self-splicing fitness, log relative to wild type (ln ratio); higher = more splicing; Tetrahymena group I intron in knt gene, E. coli kanamycin selection, DiMSum; sequences stand for … in CUCUCU…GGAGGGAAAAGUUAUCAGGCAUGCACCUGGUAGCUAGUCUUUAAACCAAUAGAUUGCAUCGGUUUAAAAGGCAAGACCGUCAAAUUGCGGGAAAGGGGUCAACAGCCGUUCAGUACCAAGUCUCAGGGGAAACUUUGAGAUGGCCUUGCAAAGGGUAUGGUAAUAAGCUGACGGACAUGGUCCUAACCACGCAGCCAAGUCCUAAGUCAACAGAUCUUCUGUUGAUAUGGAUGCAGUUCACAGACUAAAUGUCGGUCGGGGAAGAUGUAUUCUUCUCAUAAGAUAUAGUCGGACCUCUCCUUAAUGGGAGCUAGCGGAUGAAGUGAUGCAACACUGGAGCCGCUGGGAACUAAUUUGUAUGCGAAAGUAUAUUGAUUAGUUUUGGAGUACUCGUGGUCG
# EXPERIMENTAL CONDITIONS: 37 °C
Decide by self-splicing fitness (ln): equal to or exceeding -2 means MET, less means NOT MET.

1) AGAAAGCAAUAUUACGCAGC NOT MET
2) CACCAGCAAUAUUACGGAAC NOT MET
3) GGUCAGCAAUAUUACGACAC MET
4) GUGGAGCAAUAUUACGCGGA MET
5) UUUCAGCAAUAUUACGUCAC NOT MET
6) CGGCAGCAAUAUUACGGCGC NOT MET
7) AGCGAGCAAUAUUACGUAUU MET
